Give measured melting point for each item. Keep answers brief.

So what's the measured melting point for this one? O=[N+]([O-])c1ccc(-c2ccc(CCl)o2)cc1
97 to 99 °C

Now this one: Cn1cccc1C(=O)CS(C)=O (stereo unspecified)
74 to 76 °C

Now this one: CCOC(=O)Cc1ccc(N2Cc3ccccc3C2=N)cc1
204 to 206 °C

Now this one: COc1ccc(CNc2ccc(C#N)cc2)cc1F
108 °C

Now this one: Oc1ccc2cc(OCCN3CCC(Cc4ccc(F)cc4)CC3)ccc2c1
184 to 185 °C

Now this one: CC1(C)COc2ccc(Cl)cc2C(O)(c2ccccn2)C1 (stereo unspecified)
118 °C

---

test-readout: melting point

So what's the measured melting point for this one? CN1CCOc2cccc3nc4c(c1c23)CCCC4
97 to 98 °C

Now this one: CC(CSC#N)n1nnc2cc3c(=O)n(C4CC4)nnc3cc2c1=O (centres undefined)
178 to 180 °C

Now this one: CCC(=O)OC(C)c1ccc(-c2ccc(C(=O)O)cc2)cc1 (single isomer, unassigned; (+))
175 to 176 °C

Now this one: COc1ccc(C(OC(C)=O)c2cc(OCc3ccccc3)ccc2OC)nc1 (centres undefined)
105 to 110 °C

Now this one: COc1ccc(OCC(=O)O)c(OC)c1OC
102 to 104 °C

Now this one: Cc1ccc2c(c1Cl)C(=O)N(C1(C(N)=O)CCCCC1)C2=O
192 to 208 °C

Now this one: COc1ccc(-c2cc(=O)c3c(OCC(O)CO)cc(OCC(O)CO)cc3o2)cc1O (centres undefined)
204 °C

Now this one: CC(C)C(=O)N(C)C1CN(C(=O)Nc2ccc(C(F)(F)F)cc2)N=C1c1ccc(Cl)cc1 (centres undefined)
180 to 182 °C

Now this one: CC(Cc1ccc(CC2SC(=O)NC2=O)cc1)NCC(O)c1cc(Cl)c(N)c(Cl)c1 (centres undefined)
195 to 201 °C

---

Give measured melting point for each item. Keep answers brief.

So what's the measured melting point for this one? Cc1ccc2ncccc2c1C(=O)NCC1CCCCC1
165 °C

Now this one: CN(C)CCOc1ccc(N2C(=O)C=C3CCCCC32)cc1 (stereo not given)
90 °C

Now this one: Cc1ccc(S(=O)(=O)Nc2ccccc2C(=O)NCCc2ncc[nH]2)cc1
173 to 181 °C

Now this one: COc1cc(Cc2cnc(N)nc2N)ccc1N
210 to 212 °C

Now this one: COc1ccc(C2(O)c3cccc(O)c3C(=O)c3c(O)cccc32)cc1
172 to 173 °C

Now this one: O=C(c1cc(-c2ccc(Cl)c(Cl)c2)ccn1)N(O)Cc1ccccc1
125 to 130 °C

Now this one: Cc1nc(C(=O)NC23CC4CC(CC(O)(C4)C2)C3)c(C)n1-c1ccccc1
215 to 220 °C

Now this one: CCOC(=O)Nc1ccc(OC)c(OC)c1
75 to 78 °C

Now this one: CCOC(=O)Cc1nc(-c2ccc(F)cc2)oc1CC(C)C
60 to 61 °C

Now this one: COc1ccc(CN2C(=O)CN(Cc3cccc(I)c3)S2(=O)=O)cc1
98 to 100 °C

---

Give measured melting point for each item. Keep answers brief.

So what's the measured melting point for this one? Cc1ccc(S(=O)(=O)N(C(=O)OC(C)(C)C)[C@@H]2CCCC[C@H]2N)cc1
137 to 139 °C

Now this one: NC(=O)N(O)C1C=C(c2cccc(Oc3ccccc3)c2)CC1 (single isomer, unassigned; (+))
139 to 141 °C

Now this one: O=C1N(Cc2ncccc2C(F)F)c2ccccc2C12COc1cc3c(cc12)OCCO3 (centres undefined)
181 to 182 °C

Now this one: CC(C)(C)OC(=O)NC1C2CN(CC(O)(c3ccccc3)c3ccccc3)CC21 (centres undefined)
127 to 131 °C

The values you see were collected from a melting point compilation (Tetko et al.; mined from patent text by program, amines drawn as free bases though some values may be those of a salt).
